assay_system: CRF1R; note: reference of the scale not given here
assay: cell-based or functional assay
value_kind: CRF1R Emax % (%)
Write down the numeric answer in % and omit the unit.

# count of solved cases: 2
ZGPPISIDLPLYLLRKMIEIEKQEKEKQQAANNALLLATI (C-terminal amide) [SEQ ID NO 245] = 100
ZGPPISIDLPYQLLRKVIEIEKQEKEKQQAANNRLLLDTI (C-terminal amide) [SEQ ID NO 283] = 100

Name the recorded CRF1R Emax % for ZGPPISIDLPTYLLRKMIEIEKQEKEKQQAANNALLLATI (C-terminal amide) [SEQ ID NO 233] .
11
